# tgt: Amblyomma americanum EcR (AmaEcR-DEF) (Amblyomma americanum)
# Sequence (O44338 291-570): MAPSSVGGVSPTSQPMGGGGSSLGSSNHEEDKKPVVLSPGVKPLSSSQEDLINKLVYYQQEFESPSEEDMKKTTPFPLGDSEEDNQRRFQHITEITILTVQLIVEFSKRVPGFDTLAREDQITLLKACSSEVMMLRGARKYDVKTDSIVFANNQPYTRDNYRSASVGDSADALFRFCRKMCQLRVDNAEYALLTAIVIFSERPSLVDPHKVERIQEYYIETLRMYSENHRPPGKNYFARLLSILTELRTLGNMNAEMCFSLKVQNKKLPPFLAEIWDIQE
# Sequence (P28702 299-449 partner): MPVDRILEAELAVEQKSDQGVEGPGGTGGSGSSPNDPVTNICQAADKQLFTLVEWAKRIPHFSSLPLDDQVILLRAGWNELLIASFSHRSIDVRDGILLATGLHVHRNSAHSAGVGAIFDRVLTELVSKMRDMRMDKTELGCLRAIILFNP
# test.name: Two-hybrid gene switch assay, AmaEcR-DEF in NIH3T3 cells
# conditions: NIH3T3, 48 h, read-out: rel max FI (PoA), AMA
property.label: Emax (%)
Answer in %, number only, no unit symbol.

Data request: I would be grateful if you could share the reported Emax for CO[C@@H]1C[C@H]2C(=O)C=C3[C@H](CC[C@]4(C)[C@@H]([C@@](C)(O)[C@@H](CCC(C)(C)O)OC)CC[C@@]34O)[C@@]2(C)C[C@@H]1O [20E-3,22-dimethyl ether] .
Data returned: 80

Data request: I would be grateful if you could share the reported Emax for CO[C@H](CCC(C)(C)O)[C@](C)(O)C1CC[C@@]2(O)C3=CC(=O)C4C[C@@H](O)[C@@H](O)CC4(C)C3CCC12C (some centres unmarked) [20E-22-methyl ether] .
Data returned: 83

Data request: I would be grateful if you could share the reported Emax for CO[C@H]1C[C@@]2(C)[C@@H](C[C@H]1O)C(=O)C=C1[C@@H]2CC[C@]2(C)[C@@H]([C@@](C)(O)[C@@H](CCC(C)(C)O)OC)CC[C@@]12O [20E-2,22-dimethyl ether] .
Data returned: 72

Data request: I would be grateful if you could share the reported Emax for CO[C@H]1C[C@@]2(C)[C@@H](C[C@H]1O)C(=O)C=C1[C@@H]2CC[C@]2(C)[C@@H]([C@@](C)(O)[C@H](O)CCC(C)(C)O)CC[C@@]12O [20E-2-methyl ether] .
Data returned: 50

Data request: I would be grateful if you could share the reported Emax for CO[C@@H]1C[C@H]2C(=O)C=C3[C@H](CC[C@]4(C)[C@@H]([C@@](C)(O)[C@H](O)CCC(C)(C)O)CC[C@@]34O)[C@@]2(C)C[C@@H]1O [20E-3-methyl ether] .
Data returned: 70

---

# tgt: wild-type Drosophila melanogaster EcR (DmEcR; GAL4-EcR DEF with VP16-RXR-USP chimera) (Drosophila melanogaster, UniProt P34021)
# Sequence (P34021 with tags, fused parts or gaps limits assumed): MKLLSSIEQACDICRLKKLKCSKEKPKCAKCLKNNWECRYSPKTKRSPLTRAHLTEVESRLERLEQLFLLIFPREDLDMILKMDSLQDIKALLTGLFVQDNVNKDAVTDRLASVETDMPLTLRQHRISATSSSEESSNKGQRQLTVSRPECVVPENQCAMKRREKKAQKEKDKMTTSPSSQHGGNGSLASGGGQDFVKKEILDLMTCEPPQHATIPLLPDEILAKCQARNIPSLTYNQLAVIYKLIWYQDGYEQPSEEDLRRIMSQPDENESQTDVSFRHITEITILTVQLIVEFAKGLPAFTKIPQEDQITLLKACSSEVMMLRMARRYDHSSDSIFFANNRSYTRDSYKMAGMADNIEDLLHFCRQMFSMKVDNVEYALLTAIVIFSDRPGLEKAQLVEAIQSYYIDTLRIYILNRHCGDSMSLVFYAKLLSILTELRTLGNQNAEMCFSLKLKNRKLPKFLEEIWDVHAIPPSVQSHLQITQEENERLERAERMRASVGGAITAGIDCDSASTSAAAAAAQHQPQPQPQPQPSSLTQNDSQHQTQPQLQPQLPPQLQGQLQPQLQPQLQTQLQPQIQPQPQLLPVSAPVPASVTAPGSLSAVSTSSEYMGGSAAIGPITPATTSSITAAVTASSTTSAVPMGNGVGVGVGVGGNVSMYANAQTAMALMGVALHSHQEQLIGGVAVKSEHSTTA
# test.name: Two-hybrid gene switch assay, luciferase reporter, wild-type DmEcR, mouse NIH3T3 cells
# Format: cell-based
# conditions: EC50, FIG. 14A/14B, GAL4-EcR(DEF) with VP16-RXR-USP chimera
pEC50: −log10 of the molar value.
Hi there, I'd appreciate the recorded pEC50 for every entry that follows.

Data request: I would be grateful if you could share the reported pEC50 for CC(C)CC[C@@H](O)[C@](C)(O)[C@H]1CC[C@@]2(O)C3=CC(=O)[C@]4(O)C[C@@H](O)[C@@H](O)C[C@]4(C)[C@H]3[C@H](O)C[C@]12C [Mur A, muristerone A, reference compound] .
Data returned: 7.24

Data request: I would be grateful if you could share the reported pEC50 for `CC(C)(O)CC[C@@H](O)[C@](C)(O)[C@H]1CC[C@@]2(O)C3=CC(=O)[C@]4(O)C[C@@H](O)[C@@H](O)C[C@]4(C)[C@H]3CC[C@]12C` .
Data returned: ~5.70

Data request: I would be grateful if you could share the reported pEC50 for CC(CC(O)C(C)(O)C1CCC2(O)C3=CC(=O)C4CC(O)C(O)CC4(C)C3CCC12C)C(C)(C)O (stereo not drawn) .
Data returned: ~4.70
